# TARGET: hnRNPA1 RNA-binding domain (human, UniProt P09651 1-196)
# Sequence (P09651 1-196): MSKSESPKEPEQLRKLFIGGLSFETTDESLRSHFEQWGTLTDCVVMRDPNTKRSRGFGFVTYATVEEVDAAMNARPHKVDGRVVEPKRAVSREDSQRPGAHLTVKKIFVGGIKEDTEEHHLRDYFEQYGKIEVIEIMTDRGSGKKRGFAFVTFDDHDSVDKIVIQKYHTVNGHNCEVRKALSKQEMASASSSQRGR
# EXPERIMENTAL DETAILS: EMSA
OBSERVED PROPERTY: Kd (nM)
API: value field is a number in nM; no unit string.

q: Look up Kd for this binder: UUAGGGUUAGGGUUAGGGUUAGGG (structured_RNA) [24-mer telomere RNA]
a: 37.6
